Biological target: cadherin6 (CDH6)-fc fusion protein (Homo sapiens)
Construct: Fc
Sequence (P55285 with tags, fused parts or gaps limits assumed): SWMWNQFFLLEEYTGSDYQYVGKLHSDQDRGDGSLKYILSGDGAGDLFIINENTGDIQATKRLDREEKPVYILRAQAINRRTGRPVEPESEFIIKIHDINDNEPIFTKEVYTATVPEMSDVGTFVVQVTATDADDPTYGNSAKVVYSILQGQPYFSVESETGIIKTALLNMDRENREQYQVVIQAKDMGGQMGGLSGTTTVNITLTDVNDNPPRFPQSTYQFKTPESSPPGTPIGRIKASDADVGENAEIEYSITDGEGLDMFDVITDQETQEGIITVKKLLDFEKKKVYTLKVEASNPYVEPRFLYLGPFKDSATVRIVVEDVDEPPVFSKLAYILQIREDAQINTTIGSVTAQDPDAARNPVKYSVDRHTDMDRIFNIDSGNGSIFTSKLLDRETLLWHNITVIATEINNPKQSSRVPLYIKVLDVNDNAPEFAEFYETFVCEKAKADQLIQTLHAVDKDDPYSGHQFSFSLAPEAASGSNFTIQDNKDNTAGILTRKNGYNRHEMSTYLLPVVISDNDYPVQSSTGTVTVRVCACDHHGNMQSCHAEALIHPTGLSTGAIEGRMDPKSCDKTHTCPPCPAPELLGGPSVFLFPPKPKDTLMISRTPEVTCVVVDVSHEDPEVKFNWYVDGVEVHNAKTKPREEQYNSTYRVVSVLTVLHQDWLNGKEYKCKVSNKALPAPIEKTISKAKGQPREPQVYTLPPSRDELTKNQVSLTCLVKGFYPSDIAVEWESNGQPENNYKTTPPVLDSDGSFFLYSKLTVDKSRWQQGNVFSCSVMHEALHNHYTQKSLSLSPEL
Assay: Affinity for CDH6 by surface plasmon resonance (SPR)
Type: binding
Conditions: CDH6 immobilized on carboxymethyl dextran chip
measurement_label: Kd (nM)

>>> df
                                   seq_text  measurement_label  test_value
0  MYTVFEHTFHVREGDEQRTFFSFPAVVAPFKCSVLPLSQNQEFMPFVKELSEALTRHGVSHKVDDSSGSI [GRS-DP]                 Kd        83.9
